Ref: PubChem BioAssay

assay: PSAC antagonists in infected red cells, primary screen, cell-based, P. falciparum Indochina, OD700, 1 h (AID 1154)
applied-conditions: P. falciparum Indochina infected RBC osmotic lysis, higher = more signal, called active from +8 up or from −8 down
measured-property: z-score
Please state the value as a number alone, without comment.

Q: Give z-score for `COc1ccc(OC[C@H]2Cc3c(-c4ccccc4)nc4c(c3CO2)CN(CCOc2ccccc2)CC4)cc1`
Ans: 15.4

Q: Give z-score for CC1CC/C=C\[C@H]2OC34C=CCN(C(C)C)C(=O)[C@H]3N(CCCO)C(=O)[C@@H]4C2C(=O)O1 (stereo partly specified)
Ans: 0.0261

Q: Give z-score for `COC(=O)[C@H]1COC(c2ccc(OCCCO)cc2)=N1`
Ans: 22.4

Q: Give z-score for `CCOC(=O)CCN1C(=O)[C@H]2[C@H]3[C@H](O)[C@H](O)CC(=NOCc4ccccc4)[C@@H]3CC[C@H]2C1=O`
Ans: 1.61

Q: Give z-score for `C=CCNC(=O)[C@H]1[C@@H]2C(=O)O[C@@H](c3ccccc3)[C@@H](c3ccccc3)N2[C@@H](c2ccc(O)cc2)[C@]12C(=O)N(C(=O)OCCOC)c1ccc(C#CC3=CCCCC3)cc12`
Ans: 1.65

Q: Give z-score for `COC(=O)[C@@H]1CCCN1C(=O)[C@@H](C)CO`
Ans: 0.34

Q: Give z-score for `C=C(/C(=C/C[C@H](OC(C)=O)c1ccc(OCCO)cc1)c1cnc2ccccc2c1)C(C)C`
Ans: 12.8

Q: Give z-score for CC(C)c1ccc(NN2C(C(O)c3ccc4c(c3)OCO4)C=CC3C(=O)N(c4ccccc4)C(=O)C32)cc1 (stereo unspecified)
Ans: 1.76

Q: Give z-score for `C=C(/C(=C/C[C@@H](OC(=O)c1ccncc1)c1ccc(OCCO)cc1)c1cnc2ccccc2c1)C(C)C`
Ans: 12.8

Q: Give z-score for CN1C(=O)C2C(C1=O)C1C=C(CCCO)C2C(c2ccc(CN3CCCC3)cc2)N1C (stereo unspecified)
Ans: 1.51

Q: Give z-score for COC(=O)[C@H](C)NC(=O)CCC1CC(OC(=O)NCCc2ccc(F)cc2)CC2(CCCC(COC(=O)NCC(c3ccccc3)c3ccccc3)O2)O1 (stereo partly specified)
Ans: 8.81

Q: Give z-score for O=C1CCCC2OC12C(O)CCc1ccccc1 (stereo unspecified)
Ans: -0.272

Q: Give z-score for `O=C1[C@H]2[C@H]3[C@H](O)[C@H](O)CC(=NO[C@@H]4O[C@H](CO)[C@@H](O)[C@H](O)[C@H]4O)[C@H]3CC[C@H]2C(=O)N1Cc1ccccc1`
Ans: 5.53

Q: Give z-score for `CC(=O)OC[C@H]1O[C@H](CCON=C[C@@H](C)[C@H](OCc2ccccc2)C(C)C)C=C[C@@H]1OC(C)=O`
Ans: 1.25

Q: Give z-score for `CO[C@H]1COC(=O)[C@H](C)NC(=O)[C@@H](C)COC(=O)CC=C[C@@H]1C`
Ans: 0.945

Q: Give z-score for C[C@@H]1CCC2C(=O)N(Cc3ccccc3)C[C@@H](O)CN2[C@H]1c1ccc(Br)cc1 (stereo partly specified)
Ans: 0.167

Q: Give z-score for `C=CCN1C(=O)[C@]2(O[C@H](CCn3cc(CCO)nn3)[C@@H]([Si](C)(C)c3ccc(OC)cc3)[C@@H]2C)c2cc(N3CCOC3=O)ccc21`
Ans: 6.82

Q: Give z-score for `CCOC(=O)C[C@H]1[C@H](OC(=O)c2ccc(C(=O)c3ccccc3)cc2)[C@@H](NC(=O)c2ccc(-c3ccccc3)cc2)c2cc(OCCCO)ccc2N1C(=O)c1ccc2ccccc2n1`
Ans: 5.21

Q: Give z-score for `C=CC[C@@H]1C=C[C@H](ON=C[C@@H](OC)[C@H](C)C=CCC(=O)OC)[C@@H](CO)O1`
Ans: 0.815

Q: Give z-score for COC(=O)CC1OC1[C@H](C)[C@@H](OC)C(C)C (stereo partly specified)
Ans: 2.66

Q: Give z-score for `CCN1C(=O)[C@H]2[C@H]3[C@H](O)[C@H](O)CC(=NOCc4ccccc4)[C@H]3CC[C@H]2C1=O`
Ans: 1.78

Q: Give z-score for `COC(=O)CC=C[C@@H](C)[C@H](OC)c1ccccc1Br`
Ans: 0.727

Q: Give z-score for `C=CC[C@@H]1C=C[C@H](ON=C2c3cc(OC)ccc3O[C@H](c3cccc(OC)c3)[C@H]2O)[C@@H](CO)O1`
Ans: 2.12

Q: Give z-score for `C=C(CCCC)C(=O)CC[C@@H](OC(C)=O)c1cccc(OCCO)c1`
Ans: 2.82

Q: Give z-score for `O=C(CS)NCCCCCNC(=O)[C@@H]1C[C@@H]2C(=O)N[C@@H](Cc3ccccc3)C(=O)N2[C@@H]1c1ccc(O)cc1`
Ans: 10.1

Q: Give z-score for COC(=O)[C@@H]1CC[C@H](C)[C@@H](c2ccc(C)cc2)N1C(=O)c1ccc(C=NOC(C)CN2CCCCc3nc(C)c(C)cc32)cc1 (stereo partly specified)
Ans: 1.21

Q: Give z-score for CCOC(=O)[C@H](Cc1ccccc1)NC(=O)CCC1CC(OC(=O)NCc2ccc3c(c2)OCO3)CC2(CCCC(COC(=O)NCc3ccccc3)O2)O1 (stereo partly specified)
Ans: 0.0765

Q: Give z-score for `CCN1C(=O)[C@H]2[C@H]3[C@H](O)[C@H](O)CC(=NO[C@@H]4O[C@H](CO)[C@@H](O)[C@H](O)[C@H]4O)[C@@H]3CC[C@H]2C1=O`
Ans: 0.568

Q: Give z-score for CCOC(=O)[C@H](Cc1ccccc1)NC(=O)CCC1CC(OC(=O)NCc2ccc3c(c2)OCO3)CC2(CCCC(COC(=O)NCC(c3ccccc3)c3ccccc3)O2)O1 (stereo partly specified)
Ans: 13.8

Q: Give z-score for O[C@@H](Cc1ccccc1)[C@H]1C2C=CCCC(c3ccccc3)=C2CN1Cc1cccc(Cl)c1 (stereo partly specified)
Ans: 4.33

Q: Give z-score for `CO[C@H]1COC(=O)CC=C[C@H](C)[C@@H](NS(=O)(=O)c2ccc(C)cc2)COC(=O)CC=C[C@@H]1C`
Ans: 0.0723
